Assay Target: SALL4 ZFC4 WT (HT-SELEX) (Mus musculus, UniProt Q8BX22 870-940)
Sequence: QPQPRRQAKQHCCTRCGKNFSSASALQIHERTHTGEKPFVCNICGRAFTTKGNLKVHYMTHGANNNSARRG
Method: HT-SELEX; high values mean tight binding
Particulars: protein: recombinant; vector His6-GST; dsDNA, one strand shown
Binary call on binding signal: Satisfied from 0.9 fold-change vs cycle 0 upward, Not satisfied beneath that.

> print(dat)
    residue.codes          group
 1         AGCCTG  Not satisfied
 2         AATAAT      Satisfied
 3         TCTCCA  Not satisfied
 4         AATCTG      Satisfied
 5         CCTGCA  Not satisfied
 6         AACAGC  Not satisfied
 7         CTAGAC  Not satisfied
 8         TAGGAA      Satisfied
 9         AGCAAA      Satisfied
10         CCCATC  Not satisfied
11         ATCATG      Satisfied

Ref: paper PMC9838217
